# Tested on: Bacillus subtilis
# assay: agar plate paper-disc inhibition zone screening
# Format: cell-based
# settings: Dose 3.0 mg/ml, read-out: Inhibition Zone Diameter mm (Dose mg/ml) B. Subtilis
Provide the recorded zone of inhibition at 3000 µg/mL for the entries that follow.
State just the number; it will be interpreted in mm.

Bench note, Bacillus subtilis: entry NCCCn1nc2c3c(c(NCCNCCO)ccc31)C(=O)c1c(O)ccc(O)c1-2 , its zone of inhibition at 3000 µg/mL = 16

Bench note, Bacillus subtilis: entry CN1CCN(c2ccc3c4c(nn3CCNCCO)-c3c(O)ccc(O)c3C(=O)c24)CC1 , its zone of inhibition at 3000 µg/mL = 0

Bench note, Bacillus subtilis: entry COCCn1nc2c3c(c(NCCNCCO)ccc31)C(=O)c1c(O)ccc(O)c1-2 , its zone of inhibition at 3000 µg/mL = 14

Bench note, Bacillus subtilis: entry CN(C)CCn1nc2c3c(c(Cl)ccc31)C(=O)c1c(O)ccc(O)c1-2 , its zone of inhibition at 3000 µg/mL = 0

Bench note, Bacillus subtilis: entry CN(C)CCN(C)c1ccc2c3c(nn2CCNCCO)-c2c(O)ccc(O)c2C(=O)c13 , its zone of inhibition at 3000 µg/mL = 0

Bench note, Bacillus subtilis: entry CN(CCO)CCn1nc2c3c(c(Cl)ccc31)C(=O)c1c(O)ccc(O)c1-2 , its zone of inhibition at 3000 µg/mL = 0

Bench note, Bacillus subtilis: entry CN(C)CCNCCNc1ccc2c3c(nn2CCN)-c2c(O)ccc(O)c2C(=O)c13 , its zone of inhibition at 3000 µg/mL = 16

Bench note, Bacillus subtilis: entry NCCn1nc2c3c(c(Cl)ccc31)C(=O)c1c(O)ccc(O)c1-2 , its zone of inhibition at 3000 µg/mL = 0

Bench note, Bacillus subtilis: entry CCN(CC)CC(O)Cn1nc2c3c(c(NCCN)ccc31)C(=O)c1c(O)ccc(O)c1-2 (stereo not shown) , its zone of inhibition at 3000 µg/mL = 14

Bench note, Bacillus subtilis: entry Cn1nc2c3c(c(NCCN)ccc31)C(=O)c1c(O)ccc(O)c1-2 , its zone of inhibition at 3000 µg/mL = 0

Bench note, Bacillus subtilis: entry CCN(CC)CC(O)Cn1nc2c3c(c(NCCNCCO)ccc31)C(=O)c1c(O)ccc(O)c1-2 (stereo not shown) , its zone of inhibition at 3000 µg/mL = 14

Bench note, Bacillus subtilis: entry CCN(CC)CC(O)Cn1nc2c3c(c(Cl)ccc31)C(=O)c1c(O)ccc(O)c1-2 (stereo not shown) , its zone of inhibition at 3000 µg/mL = 14

Bench note, Bacillus subtilis: entry CN(C)CCn1nc2c3c(c(NCCCN)ccc31)C(=O)c1c(O)ccc(O)c1-2 , its zone of inhibition at 3000 µg/mL = 0

Bench note, Bacillus subtilis: entry NCCNc1ccc2c3c(nn2CCN)-c2c(O)ccc(O)c2C(=O)c13 , its zone of inhibition at 3000 µg/mL = 0

Bench note, Bacillus subtilis: entry NCCn1nc2c3c(c(NCCNCCO)ccc31)C(=O)c1ccccc1-2 , its zone of inhibition at 3000 µg/mL = 14

Bench note, Bacillus subtilis: entry CNCCNc1ccc2c3c(nn2CCNCCO)-c2cccc(O)c2C(=O)c13 , its zone of inhibition at 3000 µg/mL = 15

====

# Test system: Aerobacter aerogenes
# assay: agar plate paper-disc inhibition zone screening
# Format: cell-based
# settings: Klebsiella aerogenes; Dose 1.0 mg/ml; read-out: Inhibition Zone Diameter mm (Dose mg/ml) A. Aerogenes
experimental.endpoint: zone of inhibition at 1000 µg/mL

For record O=C1c2c(O)ccc(O)c2-c2nn(CCNCCO)c3ccc(Cl)c1c23 the listed zone of inhibition at 1000 µg/mL is 14 mm

For record NCCNc1ccc2c3c(nn2CCO)-c2c(O)ccc(O)c2C(=O)c13 the listed zone of inhibition at 1000 µg/mL is 15 mm

For record CCN(CC)CCn1nc2c3c(c(NCCN4CCOCC4)ccc31)C(=O)c1ccccc1-2 the listed zone of inhibition at 1000 µg/mL is 15 mm

For record CCN(CC)CCCNc1ccc2c3c(nn2CCO)-c2ccccc2C(=O)c13 the listed zone of inhibition at 1000 µg/mL is 15 mm

For record CCN(CC)CCn1nc2c3c(c(NCCNCCO)ccc31)C(=O)c1c(O)ccc(O)c1-2 the listed zone of inhibition at 1000 µg/mL is 14 mm

For record CN(C)CCn1nc2c3c(c(NCCNCCO)ccc31)C(=O)c1c(O)ccc(O)c1-2 the listed zone of inhibition at 1000 µg/mL is 14 mm

For record NCCn1nc2c3c(c(Cl)ccc31)C(=O)c1c(O)ccc(O)c1-2 the listed zone of inhibition at 1000 µg/mL is 14 mm

For record O=C1c2ccccc2-c2nn(CCNCCO)c3ccc(NCCO)c1c23 the listed zone of inhibition at 1000 µg/mL is 14 mm

For record CN(C)CCNCCNc1ccc2c3c(nn2CCNCCO)-c2c(O)ccc(O)c2C(=O)c13 the listed zone of inhibition at 1000 µg/mL is 14 mm

For record O=C1c2ccccc2-c2nn(CCNCCO)c3ccc(NCCNCCO)c1c23 the listed zone of inhibition at 1000 µg/mL is 14 mm
